// values below are reported pKd
Protein target, amino acids: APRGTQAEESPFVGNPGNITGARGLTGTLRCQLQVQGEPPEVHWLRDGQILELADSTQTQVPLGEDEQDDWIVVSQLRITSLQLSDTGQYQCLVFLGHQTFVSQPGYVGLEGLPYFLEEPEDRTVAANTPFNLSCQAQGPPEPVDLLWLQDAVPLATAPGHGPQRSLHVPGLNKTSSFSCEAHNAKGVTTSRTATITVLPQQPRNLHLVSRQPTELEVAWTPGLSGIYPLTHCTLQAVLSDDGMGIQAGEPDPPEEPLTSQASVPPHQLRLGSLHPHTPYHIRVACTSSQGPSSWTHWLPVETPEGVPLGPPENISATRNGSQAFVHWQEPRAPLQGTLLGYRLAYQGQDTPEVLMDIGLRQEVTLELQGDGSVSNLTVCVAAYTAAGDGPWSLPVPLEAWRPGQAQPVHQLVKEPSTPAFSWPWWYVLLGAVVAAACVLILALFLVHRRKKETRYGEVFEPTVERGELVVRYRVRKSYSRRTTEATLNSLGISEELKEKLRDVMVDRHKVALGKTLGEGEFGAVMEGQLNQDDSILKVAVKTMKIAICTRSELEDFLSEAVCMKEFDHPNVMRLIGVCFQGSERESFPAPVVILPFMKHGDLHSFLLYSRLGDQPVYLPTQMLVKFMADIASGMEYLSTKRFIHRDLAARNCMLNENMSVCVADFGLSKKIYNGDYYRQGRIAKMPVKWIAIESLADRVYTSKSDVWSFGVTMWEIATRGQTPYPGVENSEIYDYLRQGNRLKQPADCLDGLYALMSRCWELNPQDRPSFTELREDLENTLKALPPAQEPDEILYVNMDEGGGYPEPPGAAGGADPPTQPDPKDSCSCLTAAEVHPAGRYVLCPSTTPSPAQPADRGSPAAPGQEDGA
pKd: −log10 of the molar value.

| COMPOUND | pKd |
| --- | --- |
| CCOc1cn(-c2ncco2)nc1C(=O)Nc1ccc(Oc2ccnc3cc(OC)c(OC)cc23)cn1 | > 7.00 |
| COc1cc2nccc(Oc3ccc(NC(=O)c4nn(-c5ccc(F)c(C(C)=O)c5)cc4OCC(F)(F)F)nc3)c2cc1OC | > 7.00 |
| COc1cc2nccc(Oc3ccc(NC(=O)c4nn(-c5ccc(F)cc5Cl)cc4OCC4CC4)nc3)c2cc1OC | > 7.00 |
| CCOc1cn(-c2ccc(F)cc2C)nc1C(=O)Nc1ccc(Oc2ccnc3cc(OC)c(OC)cc23)cc1CO | 6.00 to 7.00 |
| CCOc1cnn(CCN(C)C)c1C(=O)Nc1ccc(Oc2ccnc3cc(OC)c(OC)cc23)cn1 | ≤ 6.00 |
| CCOc1cn(-c2cnccc2CCCN(C)C)nc1C(=O)Nc1ccc(Oc2ccnc3cc(OC)c(OC)cc23)cn1 | > 7.00 |
| CCOc1cn(-c2cnccc2C(F)(F)F)nc1C(=O)Nc1ccc(Oc2ccnc3cc(OC)c(OC)cc23)cn1 | > 7.00 |
| CCOc1cn(-c2ccco2)nc1C(=O)Nc1ccc(Oc2ccnc3cc(OC)c(OC)cc23)cn1 | > 7.00 |
| CCOc1cn(-c2ccc(F)cc2C)nc1C(=O)Nc1ccc(Oc2ccnc3cc(OC)c(OC)cc23)nn1 | > 7.00 |
| CCOc1cn(-c2ccnnc2)nc1C(=O)Nc1ccc(Oc2ccnc3cc(OC)c(OC)cc23)cn1 | > 7.00 |
| CCOc1cn(-c2c(C)ccnc2C)nc1C(=O)Nc1ccc(Oc2ccnc3cc(OC)c(OC)cc23)c(F)c1 | > 7.00 |
| COc1cc2nccc(Oc3ccc(NC(=O)c4nn(-c5cnc(N)nc5)cc4OC(C)C)nc3)c2cc1OC | > 7.00 |
| CCOc1cn(C(C)CC#N)nc1C(=O)Nc1ccc(Oc2ccnc3cc(OC)c(OC)cc23)cn1 (stereo not shown) | > 7.00 |

Provenance of the data: patent US10934274B2
